measured.on: T1, Peptide 4: Biotin-AGGGGSGGGGSGGGGSAAA-Tyr-acid (N-terminal biotin; C-terminal acid)
T1 construct: Control peptide without PC
T1 peptide: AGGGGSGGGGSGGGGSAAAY
experimental.details: scFv ELISA
experimental.readout: OD450 (OD450)
# unit: OD450 | format: bare number

binder: PcOxP_DB03_B08 (scFv, V domains shown, scFv in periplasmic extract) VH: EVQLLESGGGLVQPGGSLRLSCAASGFTFSDYYMEWVRQAPGKGLEWVAASRNKANDYTTEYADSVKGRFTISRDNSKNTLYLQMNSLRAEDTAVYYCARDYYGSSYWYFDVWGQGTLVTVSS VL: DIVMTQSPDSLAVSLGERATINCTASESLYSSKHKVHYLAWYQQKPGQPPKLLIYGASNRYIGVPDRFSGSGSGTDFTLTISSLQAEDVAVYYCANFYSYPLTFGGGTKVEIK
OD450 [OD450]: 0.05

Read the next record carefully.
Q) Which OD450 is reported for this binder? PcOxP_DB03_D12 (scFv, V domains shown, scFv in periplasmic extract) VH: EVQLLESGGGLVQPGGSLRLSCAASGFTNSDFYMEWVRQAPGKGLEWVAASRNKANDYTTELADSVKGRFTISRDNSKNTLYLQMNSLRAEDTAVYYCARDYYGSSYWYFDVWGQGTLVTVSS VL: DIVMTQSPDSLAVSLGERATINCTASESLYSSKHKVHYLAWYQQKPGQPPKLLIYGASNRYIGVPDRFSGSGSGTDFTLTISSLQAEDVAVYYCAQFYSYPLTFGGGTKVEIK
A) 0.04
